For each entry below, report its Absorption maximum (λmax) value.
experiment: Absorption maximum and molar extinction coefficient of ethyl acetate solutions; format: physicochemical; settings: ethyl acetate solution, Table 2
Write the number in nm without appending the unit.

Task: Looking for the measured Absorption maximum (λmax) of CCN(CCC#N)c1ccc(N=C2C(C)=Nn3nc(C(C)CNC(=O)CCCOc4ccc(OC)cc4)nc32)cc1 (stereo not drawn) [X-3, reference compound] , can you help?
Result: 511

Task: Next record, please: CCCCCCCCCCCCCCOC(=O)CCC(=O)Nc1ccc(-c2nc3n(n2)N=C(C(C)(C)C)C3=Nc2ccc(N(CCC#N)CCCC)cc2)cc1 [Ia-12]
Result: 519

Task: Proceed to CCCCCCC(Oc1ccc(C(C)(C)CC)cc1C(C)(C)CC)C(=O)NCC(C)c1nc2n(n1)N=C(C)C2=Nc1ccc(N(CCO)CCC#N)cc1C (stereo not drawn) [Ia-6]
Result: 522

Task: How about this compound: COc1ccc(OCCN(CCC#N)c2ccc(N=C3C(C)=Nn4nc(C(C)CN5C(=O)c6ccccc6C5=O)nc43)cc2)cc1 (stereo not drawn) [X-1, reference compound]
Result: 504

Task: Could you do the same for CCCCCCC(Oc1ccc(C(C)(C)CC)cc1C(C)(C)CC)C(=O)Nc1ccc(-c2nc3n(n2)N=C(C(C)(C)C)C3=Nc2ccc(N(CCC#N)CCCC)cc2)cc1 (stereo not drawn) [Ia-14] , please?
Result: 520

Task: // same read-out, input: CCN(CC)c1ccc(N=C2C(C)=Nn3nc(C(C)CNC(=O)CCCOc4ccc(OC)cc4)nc32)c(C)c1 (stereo not drawn) [X-4, reference compound]
Result: 536

meta.source: patent US6383276B1
